- system_name: T1, rat IL-17A (rat, UniProt Q61453 18-150, limits assumed)
- T1 construct: Purified recombinant protein in SPR
- T1 sequence (looked up): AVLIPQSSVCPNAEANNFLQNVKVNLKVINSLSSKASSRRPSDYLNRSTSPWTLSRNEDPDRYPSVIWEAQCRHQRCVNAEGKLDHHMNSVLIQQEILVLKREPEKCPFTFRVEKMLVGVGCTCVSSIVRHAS
- assay_info: SPR (Biacore 3000), antibody captured by anti-Fc, antigen in solution;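 note: purified recombinant IL-17 antigens flowed over captured antibodies in HBS-EP buffer, global Langmuir one-to-one fit of association and dissociation phases, KD derived from koff over kon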
binders and their reported pKd
Remember the convention: pKd equals -log10 of concentration in molar.

# binder, pKd
rows = [
    ("IL17-h5C5.9 (antibody, V domains shown, IgG; constant regions not specified; also called h5C5.9 (VH.1b-Vk.1a)) VH: EVQLVQSGAEVKKPGASVKVSCKASGYTFTDYEFHWVRQAPGQGLEWIGVIHPGNGGTAYNQNFRDRATLTADKSTSTAYMELSSLRSEDTAVYYCTRFLTYEGYFDYWGQGTLVTVSS VL: DIQMTQSPSSLSASVGDRVTITCKASQSVSIDVGWFQQKPGKSPKLLIYHASNRYTGVPSRFSGSGSGTDFTFTISSLQPEDFATYFCQQDYSSPYTFGQGTKLEIKR", 8.07),
]

Input IL17-h10F7.11 (antibody, V domains shown, IgG; constant regions not specified; also called h10F7.11 (VH.1a-Vk.2a)) VH: EVQLVQSGAEVKKPGSSVKVSCKASGYTFTDYEIHWVRQAPGQGLEWIGVNDPESGGTFYNQKFDGRATLTADKSTSTAYMELSSLRSEDTAVYYCTRYYRYESFYGMDYWGQGTTVTVSS VL: EIVLTQSPDFQSVTPKEKVTITCSASSSISYIYWFQQKPDQSPKRWIYATFELASGVPSRFSGSGSGTDYTLTINSLEAEDAATYYCHQRSSYPWTFGQGTKLEIKR . Output pKd: 8.42

Query IL17-h5C5.14 (antibody, V domains shown, IgG; constant regions not specified; also called h5C5.14 (VH.1-Vk.3a)) VH: EVQLVQSGAEVKKPGASVKVSCKASGYTFTDYEFHWVRQAPGQGLEWMGVIHPGNGGTAYNQNFRDRVTITADKSTSTAYMELSSLRSEDTAVYYCARFLTYEGYFDYWGQGTLVTVSS VL: EIVMTQSPATLSVSPGERATLSCKASQSVSIDVGWFQQKPGQSPRLLIYHASNRYTGVPARFSGSGSGTDFTLTISSLQPEDFAVYFCQQDYSSPYTFGQGTKLEIKR yields pKd of 8.25

Source: patent US20140348834A1
